Listing of recorded EC50 by entry.
- protocol notes: Inhibition of Human respiratory syncytial virus Fusion protein D486N mutant expressed in Hep2 cells assessed as reduction in virus-induced cytopathic effect after 4 days by XTT assay

Answered examples (3):
CC[C@H]1c2cc3nc(N4CC[C@H](N)C4)cc(n3n2)N(C)CCCCOc2ccc(C)cc2C(=O)N1C; 0.44 µM
CC[C@H]1c2cc3nc(N4CC[C@H](N)C4)cc(n3n2)N(C)CCCOc2ccc(C)cc2C(=O)N1C; > 1 µM
Cc1ccc2c(c1)C(=O)N1CCCC[C@H]1c1cc3nc(N4CC[C@H](N)C4)cc(n3n1)N(C)CCCCO2; 0.0081 µM

Let us move to another entry and its EC50.
Exam item: Look up and state reported EC50 for CC[C@H]1c2cc3nc(N4CC[C@H](N)C4)cc(n3n2)NCCCCOc2ccc(C)cc2C(=O)N1C
Marked response: > 1 µM
